target: human type 5 17β-hydroxysteroid dehydrogenase (Homo sapiens, UniProt P42330); construct: screen again a human placental λgt11 cDNA to get the full length cDNA clone; expressed in transfected cells; host or cells: human embryonal kidney 293 cells (pCMV / pCMV-neo vector); assay: Inhibition of human type 5 17β-HSD activity in transfected 293 cells; format: cell-based; conditions: Table 4′; read-out: Inhibition Type V 17β-HSD IC50
Sequence (P42330 whole entry): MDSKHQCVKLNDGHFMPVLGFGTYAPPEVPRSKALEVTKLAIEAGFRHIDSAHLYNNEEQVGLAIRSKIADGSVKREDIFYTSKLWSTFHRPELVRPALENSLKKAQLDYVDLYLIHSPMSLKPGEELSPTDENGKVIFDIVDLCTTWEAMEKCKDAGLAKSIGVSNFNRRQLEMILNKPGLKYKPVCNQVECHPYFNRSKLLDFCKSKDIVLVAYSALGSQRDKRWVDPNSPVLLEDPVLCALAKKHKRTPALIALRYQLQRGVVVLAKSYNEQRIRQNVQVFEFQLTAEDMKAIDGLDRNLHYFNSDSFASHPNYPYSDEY
experimentalEndpoint: log10 IC50 (log10 of the value in nM)
The base-10 logarithm of IC50, taken with IC50 in nM, is what appears here.

Q) Please give the measured log10 IC50 for this compound: COc1ccc2c(c1)C(=O)CC1C3CCC4(CCC(C)(C)C(=O)O4)C3(C)CCC21O (centres unmarked)
A) 1.40

Q) Item CC1CCC2(CCC3C4CCc5cc(O)c([N+](=O)[O-])cc5C4CCC32C)OC1=O (centres unmarked) [EM-1126] has what recorded log10 IC50?
A) 0.78

Q) Given the entry COCCOc1cc2c(cc1C(=O)N(C)C)C1CCC3(C)C(CCC34CCC(C)(C)C(=O)O4)C1CC2 (centres unmarked) , report its measured log10 IC50.
A) 1.23

Q) # log10 IC50 lookup, item COCCOc1ccc2c(c1)CCC1C2CCC2(C)C1CCC21CCC(C)(C)C(=O)O1 (centres unmarked)
A) 1.32

Q) Need log10 IC50 of CC1(C)CCC2(CCC3C4CCc5cc(OCCN6CCCCC6)ccc5C4CCC32C)OC1=O (centres unmarked) , thanks.
A) 1.68

Q) Please give the measured log10 IC50 for this compound: CC1(C)CCC2(CCC3C4CC(=O)c5cc(O)ccc5C4CCC32C)OC1=O (centres unmarked)
A) 0.56

Q) Any idea what log10 IC50 was measured for CC1(C)CCC2(CCC3C4CCc5cc(O)c(C#N)cc5C4CCC32C)OC1=O (centres unmarked) ?
A) 0.65

Q) // returns reported log10 IC50 for input COc1ccc2c(c1)C(=O)CC1C2CC[C@@]2(C)C1CC[C@@]21CCC(C)(C)C(=O)O1 (some centres unmarked)
A) 0.95

Q) Consider the compound shown here: COCCOc1ccc2c(c1)C(=O)CC1C2CCC2(C)C1CCC21CCC(C)(C)C(=O)O1 (centres unmarked) What is its recorded log10 IC50?
A) 0.74

Q) Entry CN(C)C(=O)c1cc2c(cc1O)CCC1C2CCC2(C)C1CCC21CCC(C)(C)C(=O)O1 (centres unmarked) : reported log10 IC50 = ?
A) 1.28

Q) Endpoint output: log10 IC50 of CSCCOc1ccc2c(c1)CCC1C2CCC2(C)C1CCC21CCCC(=O)O1 (centres unmarked) . Value?
A) 0.82

Q) For the compound COCCOc1cc2c(cc1C(=O)OC)C1CC[C@@]3(C)C(CC[C@@]34CCC(C)(C)C(=O)O4)C1CC2 (some centres unmarked) , what log10 IC50 is on record?
A) 1.08

Q) If you can, please state the reported log10 IC50 value of CC12CCC3c4ccc(F)cc4CCC3C1CCC21CCCC(=O)O1 (centres unmarked) .
A) 0.85

Q) I am curious: what log10 IC50 value has been reported for CC12CCC3c4ccc(O)cc4CCC3C1CCC21CC=CC(=O)O1 (centres unmarked) ?
A) 1.69

Q) For the compound COc1ccc2c(c1)CCC1C2CCC2(C)C1CCC21CCC(C)(C)C(=O)O1 (centres unmarked) , what log10 IC50 is on record?
A) 1.63

Q) Find the recorded log10 IC50 belonging to COC(=O)c1cc2c(cc1O)CCC1C2CCC2(C)C1CCC21CCC(C)(C)C(=O)O1 (centres unmarked) and report it.
A) 1.54

Q) # log10 IC50 lookup, item CC1(C)CCC2(CCC3C4CCc5c(cc(Cl)c(OS(C)(=O)=O)c5Cl)C4CCC32C)OC1=O (centres unmarked)
A) 1.28

----------
molecular target: glucocorticoid receptor (Rattus norvegicus); construct: from tissue; host or cells: liver cytosol of male Sprague-Dawley rats; experiment: Glucocorticoid receptor assay: inhibition of [3H]-dexamethasone binding, liver cytosol; settings: E^−8
Sequence (P06536 whole entry): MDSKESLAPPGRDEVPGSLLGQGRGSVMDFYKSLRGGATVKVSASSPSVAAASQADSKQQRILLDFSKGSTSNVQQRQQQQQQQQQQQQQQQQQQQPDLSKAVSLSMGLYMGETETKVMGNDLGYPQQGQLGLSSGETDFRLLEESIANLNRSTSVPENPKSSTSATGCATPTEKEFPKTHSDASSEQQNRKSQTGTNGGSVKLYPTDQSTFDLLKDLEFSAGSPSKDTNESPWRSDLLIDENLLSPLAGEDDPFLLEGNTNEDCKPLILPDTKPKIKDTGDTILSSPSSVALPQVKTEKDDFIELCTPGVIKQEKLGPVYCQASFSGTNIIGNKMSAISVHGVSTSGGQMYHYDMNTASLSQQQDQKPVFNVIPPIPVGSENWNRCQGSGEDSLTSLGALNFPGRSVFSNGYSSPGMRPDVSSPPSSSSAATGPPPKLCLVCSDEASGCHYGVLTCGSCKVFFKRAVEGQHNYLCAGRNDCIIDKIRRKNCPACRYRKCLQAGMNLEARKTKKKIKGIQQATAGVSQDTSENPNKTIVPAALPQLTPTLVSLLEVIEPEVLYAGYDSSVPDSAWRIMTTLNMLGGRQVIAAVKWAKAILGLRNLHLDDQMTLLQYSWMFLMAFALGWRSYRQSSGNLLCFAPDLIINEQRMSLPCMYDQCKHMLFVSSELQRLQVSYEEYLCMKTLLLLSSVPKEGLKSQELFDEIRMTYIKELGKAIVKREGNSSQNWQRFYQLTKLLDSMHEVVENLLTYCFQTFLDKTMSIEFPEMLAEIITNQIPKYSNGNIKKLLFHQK
experimentalEndpoint: % Inhibition Glucocorticoid Receptor (%)
Write down the numeric answer in % and omit the unit.

Q) Which % Inhibition Glucocorticoid Receptor is listed for CC(=O)O[C@]1(C(C)=O)CCC2C3C=C(C)C4=CC(=O)CC[C@]4(C)C3CC[C@@]21C (stereo partly shown) [megestrol acetate, reference compound] ?
A) 0

Q) For the compound shown here, CC(=O)O[C@]1(C(=O)N(C)C)CCC2C3C=C(C)C4=CC(=O)CC[C@]4(C)C3CC[C@@]21C (stereo partly shown) , give the reported % Inhibition Glucocorticoid Receptor.
A) 8

Q) Reported % Inhibition Glucocorticoid Receptor, compound CCCCN(C)C(=O)[C@@]1(OC(C)=O)CCC2C3C=C(C)C4=CC(=O)CC[C@]4(C)C3CC[C@@]21C (stereo partly shown) : ____
A) 0

Q) Recorded % Inhibition Glucocorticoid Receptor for COc1ccc(CC(=O)O[C@]2(C(C)=O)CCC3C4C=C(C)C5=CC(=O)C=C[C@]5(C)C4CC[C@@]32C)cc1 (stereo partly shown) , please?
A) 1

----------
target: androgen receptor (Rattus norvegicus, UniProt P15207); construct: from tissue; host or cells: ventral prostate cytosol of gonadectomized male Sprague-Dawley rats; test: Androgen receptor (AR) assay: inhibition of [3H]R1881 binding, prostate cytosol; conditions: Table 4′; E^−6
Sequence (P15207 whole entry S389L): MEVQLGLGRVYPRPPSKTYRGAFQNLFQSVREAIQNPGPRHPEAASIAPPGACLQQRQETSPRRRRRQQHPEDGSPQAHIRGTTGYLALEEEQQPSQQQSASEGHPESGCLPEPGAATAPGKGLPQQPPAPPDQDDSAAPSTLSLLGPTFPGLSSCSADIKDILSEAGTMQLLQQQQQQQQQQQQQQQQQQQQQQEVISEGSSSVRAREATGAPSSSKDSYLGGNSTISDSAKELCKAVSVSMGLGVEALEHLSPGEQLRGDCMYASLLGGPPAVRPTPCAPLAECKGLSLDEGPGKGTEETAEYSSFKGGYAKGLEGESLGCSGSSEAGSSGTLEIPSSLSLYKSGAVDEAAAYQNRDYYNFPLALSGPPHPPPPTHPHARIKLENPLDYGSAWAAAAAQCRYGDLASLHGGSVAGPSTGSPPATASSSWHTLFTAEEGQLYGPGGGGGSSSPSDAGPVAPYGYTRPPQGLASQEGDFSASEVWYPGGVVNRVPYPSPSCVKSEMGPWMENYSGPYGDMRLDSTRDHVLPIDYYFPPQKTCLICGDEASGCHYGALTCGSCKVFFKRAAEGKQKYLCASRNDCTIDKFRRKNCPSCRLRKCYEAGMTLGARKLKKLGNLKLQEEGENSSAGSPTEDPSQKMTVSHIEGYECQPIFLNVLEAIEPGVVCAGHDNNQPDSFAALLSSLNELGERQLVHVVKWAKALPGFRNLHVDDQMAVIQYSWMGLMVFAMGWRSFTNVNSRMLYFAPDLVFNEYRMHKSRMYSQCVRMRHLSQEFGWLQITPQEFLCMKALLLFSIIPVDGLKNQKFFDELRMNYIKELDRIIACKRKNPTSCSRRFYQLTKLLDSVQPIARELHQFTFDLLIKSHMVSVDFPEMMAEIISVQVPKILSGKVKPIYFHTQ
experimentalEndpoint: % Inhibition Androgen Receptor E^−6 (%)
Lab book: enter the figure in %, no units written.

Q) Entry CC1CCC2(CCC3C4CCc5cc(O)c([N+](=O)[O-])cc5C4CCC32C)OC1=O (stereo not shown) [EM-1131] has what % Inhibition Androgen Receptor E^−6?
A) 1

Q) I would be grateful if you could share the reported % Inhibition Androgen Receptor E^−6 for COCCOc1cc2c(cc1C(F)(F)F)[C@H]1CC[C@@]3(C)[C@@H](CC[C@@]34CCC(C)(C)C(=O)O4)[C@@H]1CC2 [EM-1438] .
A) 10

Q) Quick one: % Inhibition Androgen Receptor E^−6 for CC1(C)CC[C@@]2(CC[C@H]3[C@@H]4CCc5c(cc(Br)c(O)c5Br)[C@H]4CC[C@@]32C)OC1=O [EM-1382-CS] ?
A) 0

Q) Record request: % Inhibition Androgen Receptor E^−6 value, item CC1CCC2(CCC3C4CCc5cc(O)c([N+](=O)[O-])cc5C4CCC32C)OC1=O (stereo not shown) [EM-1126]
A) 10

----------
Molecular target: estrogen receptor (Rattus norvegicus)
Construct: from tissue; host or cells: uterine cytosol of gonadectomized female Sprague-Dawley rats
Sequence (P06211 1-600): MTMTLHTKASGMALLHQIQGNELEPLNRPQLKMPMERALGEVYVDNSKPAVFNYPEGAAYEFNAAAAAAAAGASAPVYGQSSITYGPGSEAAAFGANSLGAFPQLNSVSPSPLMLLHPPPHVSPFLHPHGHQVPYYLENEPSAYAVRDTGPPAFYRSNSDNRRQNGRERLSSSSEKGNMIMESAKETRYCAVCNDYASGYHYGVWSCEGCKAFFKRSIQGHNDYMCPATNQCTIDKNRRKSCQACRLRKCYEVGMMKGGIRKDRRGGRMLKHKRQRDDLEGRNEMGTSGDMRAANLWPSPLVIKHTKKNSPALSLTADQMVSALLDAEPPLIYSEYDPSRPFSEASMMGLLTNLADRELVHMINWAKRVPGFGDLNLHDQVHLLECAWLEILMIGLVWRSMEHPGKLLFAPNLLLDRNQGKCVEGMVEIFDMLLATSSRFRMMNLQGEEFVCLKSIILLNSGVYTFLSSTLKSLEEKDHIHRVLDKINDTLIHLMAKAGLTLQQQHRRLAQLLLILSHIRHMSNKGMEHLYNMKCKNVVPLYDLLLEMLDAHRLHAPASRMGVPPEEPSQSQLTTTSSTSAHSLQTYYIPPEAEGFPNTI
Experiment: Estrogen receptor (ER) assay: inhibition of [3H]E2 binding, uterine cytosol
Conditions: E^−8
Description: Female Sprague-Dawley rats (Crl: CD(SD)Br) weighing 200-300 g were obtained from Charles-River Inc. (St-Constant, Québec, Canada). The rats were gonadectomized under general anesthesia (Isoflurane) and killed by cervical dislocation 24 hours later. […] The protein concentration of the cytosol fraction was measured according to the method of Bradford (Anal. Biochem. 72: 248-254, 1976), using bovine serum albumin as standard. […]
experimentalEndpoint: % Inhibition Estrogen Receptor E^−8 (%)
Report the value in % with no unit label.

Q) Recall the recorded % Inhibition Estrogen Receptor E^−8 for C[C@]12CCC(=O)C=C1C=C[C@@H]1[C@@H]2CC[C@]2(C)C(=O)C3(CC4CC4C3)C[C@@H]12 (stereo partly shown) [EM-1299] with estrogen receptor (Rattus norvegicus) and state it.
A) 3

Q) Form: Entry = CCC[C@]1(F)CC2C3C=CC4=CC(=O)CC[C@]4(C)C3CC[C@]2(C)C1=O (stereo partly shown) [EM-1183] | System = estrogen receptor (Rattus norvegicus) | % Inhibition Estrogen Receptor E^−8 = ____
A) 0

Q) Look up % Inhibition Estrogen Receptor E^−8 with estrogen receptor (Rattus norvegicus) for this compound: CC(=O)O[C@]1(C)C(=O)CCC2C3C=C(C)C4=CC(=O)C=C[C@]4(C)C3CC[C@@]21C (stereo partly shown) [CS-237]
A) 0

Q) I'm curious: which % Inhibition Estrogen Receptor E^−8 was measured for CC(C)C[C@@H]1CC2C3C=CC4=CC(=O)CC[C@]4(C)C3CC[C@]2(C)C1=O (stereo partly shown) [EM-1273-CS] tested on estrogen receptor (Rattus norvegicus)?
A) 0

Q) Give estrogen receptor (Rattus norvegicus) % Inhibition Estrogen Receptor E^−8 for CCCC(=O)O[C@]1(C)C(=O)CCC2C3C=C(C)C4=CC(=O)CC[C@]4(C)C3CC[C@@]21C (stereo partly shown) [EM-1078]
A) 5

Q) Form field - read-out: % Inhibition Estrogen Receptor E^−8; system: estrogen receptor (Rattus norvegicus); submitted item: CC12C=CC(=O)C=C1C=CC1C2CCC2(C)C(=O)C3(CCCCC3)CC12 (stereo not shown) [CS-204]
A) 0

Q) What reported % Inhibition Estrogen Receptor E^−8 corresponds to CCC[C@@H]1CC2C3C=CC4=CC(=O)CC[C@]4(C)C3CC[C@]2(C)C1=O (stereo partly shown) [EM-1097] on estrogen receptor (Rattus norvegicus)?
A) 0
